Listed here: items and their measured Aβtotal (% Ctrl)_Mean.
system: Aβtotal; test: Demonstration of in vivo efficacy: Aβtotal lowering in brain after single oral dose (Table 13); details: mouse brain soluble fraction, mean, compared to untreated animals

In the examples that follow, each entry is paired with its recorded Aβtotal (% Ctrl)_Mean.
COc1cc(Nc2cccn3cc(-c4ccc(F)cc4C)nc23)ccc1-n1cnc(C)c1 [Compound 52]; 91 % Ctrl
CCN(CC)c1ccc(-c2cn3cccc(Nc4ccc(-n5cnc(C)c5)c(OC)c4)c3n2)cc1 [Compound 39]; 108 % Ctrl
COc1cc(Nc2cccn3c(C)c(-c4ccccc4Cl)nc23)ccc1-n1cnc(C)c1 [Compound 15]; 94 % Ctrl

Name the recorded Aβtotal (% Ctrl)_Mean for CCCc1nc2c(Nc3ccc(-n4cnc(C)c4)c(OC)c3)cccn2c1CC [Compound 10] . 104 % Ctrl

Same thing, different compound: COc1cc(Nc2cccn3c(-c4ccc(F)cc4)cnc23)ccc1-n1cnc(C)c1 [Compound 8] 96 % Ctrl

Now consider COc1cc(Nc2cccn3c(Cl)c(-c4ccc(F)cc4)nc23)ccc1-n1cnc(C)c1 [Compound 2] . 106 % Ctrl

----------
Readings of IC50 for the listed molecules
test system: Aβ42; experiment: Screening for γ-secretase-modulating activity, Method 1: Aβ42 sandwich ELISA in supernatant of SKNBE2 cells carrying APP 695 wild type (Tables 12a, 12b); format: cell-based; details: Homo sapiens; Table 12b; Method 1, SKNBE2 cells carrying APP 695 wild type, cell supernatant ELISA; averaged IC50 values, percentage of control vs log concentration
Reply numerically in nM, unit not repeated.

COc1cccc(-c2nc3c(Nc4ccc(-n5cnc(C)n5)c(OC)c4)cccn3c2C)c1; 40

What is its IC50 for Aβ42? Entry: `COc1cc(Nc2cccn3c(Br)c(-c4ccc(F)cc4)nc23)ccc1-n1cnc(C)c1` 112

Further, for `CCc1cn(-c2ccc(Nc3cccn4c(C)c(-c5cccc(OC)c5)nc34)cc2OC)cn1` ? 29

How about `COc1cc(Nc2cccn3cc(-c4ccc5ncn(C)c5c4)nc23)ccc1-n1cnc(C)c1` ? 617

# repeat for `COc1cc(Nc2nc(Br)cn3cc(-c4ccc(F)cc4C)nc23)ccc1-n1cnc(C)n1` 234

For `COc1cc(Nc2cccn3cc(-c4ccc(C#N)cc4)nc23)ccc1-n1cnc(C)c1` then? 589

----------
Test system: Aβ42
Test: Screening for γ-secretase-modulating activity, Method 2: Aβ42 Alphalisa in supernatant of SKNBE2 cells carrying APP 695 wild type (Table 12c)
Type: cell-based
Details: Method 2, Table 12c, incubated overnight
Experimental: Screening was carried out using SKNBE2 cells carrying the APP 695—wild type, grown in Dulbecco's Modified Eagle's Medium/Nutrient mixture F-12 (DMEM/NUT-mix F-12) (HAM) provided by Invitrogen (cat no. 10371-029) containing 5% Serum/Fe supplemented with 1% non-essential amino acids, 1-glutamine 2 mM, Hepes 15 mM, penicillin 50 U/ml (units/ml) en streptomycin 50 μg/ml. […] Aβtotal and Aβ42 concentrations were quantified in the cell supernatant using the Aphalisa technology (Perkin Elmer). […]
Below is a list of entries, each paired with its recorded log10(IC50) value.
Please keep in mind that the values are log10 of IC50 expressed in nM.

Examples from the recorded data:
COc1cc(Nc2cc(Cl)nn3cc(C)nc23)ccc1-n1cnc(C)c1 [Compound 165]; 2.25
COc1nc(Nc2cccn3cc(CC(F)(F)F)nc23)ccc1-n1cnc(C)n1 [Compound 180]; 2.75
COCc1c(-c2ccccc2Cl)nc2c(Nc3ccc(-n4cnc(C)c4)c(OC)n3)cccn12 [Compound 140]; 0.78
COCCCc1c(-c2ccc(F)cc2)nc2c(Nc3ccc(-n4cnc(C)n4)c(OC)c3)cccn12 [Compound 129]; 1.87
COc1cc(Nc2cc(C(F)(F)F)nn3cc(C4CCOCC4)nc23)ccc1-n1cnc(C)c1 [Compound 158]; 1.85
COc1ccccc1-c1cc(Nc2ccc(-n3cnc(C)c3)c(OC)c2)c2nc(C)cn2n1 [Compound 161]; 2.12

Proceeding to the next molecule to report its log10(IC50).
Item under review: COc1cc(Nc2cc(Cl)nn3cc(-c4cc(F)ccc4C)nc23)ccc1-n1cnc(C)n1 [Compound 162] . Reported log10(IC50)? 2.14
